test: Drug concentration at steady state in mouse brain assessed as total compound level in brain homogenates at 80 mg/kg/day, po measured after 3 days; format: ADME, organism-based; set-up: route oral; settings: brain homogenate, read-out: Css
We begin with a simple list: items and their reported concentration at 72 h.
Give a bare numeral; the unit nM is implied.

Examples with their reported concentration at 72 h follow.
[
  {
    "substance-smiles": "Cc1cccc(Nc2nc(-c3ccc(-c4ccccc4)cc3)cs2)n1",
    "concentration at 72 h, nM": 19300
  },
  {
    "substance-smiles": "c1ccc2cc(Nc3nc(-c4ccncc4)cs3)ncc2c1",
    "concentration at 72 h, nM": 80
  },
  {
    "substance-smiles": "Cc1cccc(Nc2nc(-c3cc4ccccc4o3)cs2)n1",
    "concentration at 72 h, nM": 2700
  },
  {
    "substance-smiles": "COc1ccc(-c2csc(Nc3cc4ccccc4cn3)n2)cc1OC",
    "concentration at 72 h, nM": 60
  }
]

Prompt: Requested field: concentration at 72 h. Item: Cc1ccc(Nc2nc(-c3cc(-c4ccccc4)no3)cs2)nc1
Completion: 5390
